# Test system: Wolbachia pipientis
# measurementNotes: Anti-Wolbachia Cell-Based Screen
# Type: functional
# Set-up: scale not given: in the data most compounds retested in dose-response had high values
# protocolConditions: 5 µM
About 13,000 (27%) of roughly 48,000 compounds showed an effect of 50% or more. Some of the results follow.
Exercise: for every item that follows, state its recorded Percent Effect.
One number for each entry, in %.

molecule="COc1ccc(SC(C)C(=O)N2CCC(O)CC2)cc1 (stereo not given)" uom=% assayresult=1.982
molecule="CC1(c2ccccc2)CCC(=O)N(CC2(N3CCOCC3)CCCC2)C1 (stereo not given)" uom=% assayresult=-0.1352
molecule="COCCN1CC2(CCCN(c3ncnc4[nH]cnc34)C2)CCC1=O (stereo not given)" uom=% assayresult=2.898
molecule=Cc1c(C2=NS(=O)(=O)N(C)C(C(=O)Nc3ccc(Br)cc3)=C2)cnn1C uom=% assayresult=158.8
molecule=CCc1ccccc1OC1CN(C(=O)c2cccs2)C1 uom=% assayresult=3.168
molecule="O=C(O)C(F)(F)F.O=C(O)C(F)(F)F.O=C1COC2(COCCN(Cc3cccnc3)C2)CN1c1ccoc1 (stereo not given)" uom=% assayresult=-8.923
molecule="Cc1nc(C)n(CC2CCCN2CCCOc2ccc(F)cc2)n1 (stereo not given)" uom=% assayresult=2.053
molecule="Cc1nc(C)n(CC2CCCN(CCOc3ccc(F)cc3)C2)n1 (stereo not given)" uom=% assayresult=98.89
molecule=COCCN1CCN(C(=O)NC2CC2)Cc2ccc(C)nc21.O=C(O)C(F)(F)F uom=% assayresult=-6.778
molecule="COc1ccc(-n2ccc(C(=O)N(C)C(C)C3(C)CC3)n2)cc1 (stereo not given)" uom=% assayresult=114.7

Respectfully, I request Percent Effect for each entry included below.
1. O=C1CCCN1CCCN1CCCC(Cn2cncn2)C1 (stereo not given)
2. COCC(=O)N1CCN(CCn2cccn2)c2nc(C)ccc2C1.O=C(O)C(F)(F)F

Output:
1: 2.08; 2: 116.6

Give Percent Effect for each listed item.
1. CSc1ncc(C(=O)N2CCC(O)(CN3CCOCC3)C(C)(C)C2)cn1 (stereo not given)
2. Cn1cc(CN2CCOCC3(C2)CN(c2ccccc2)C(=O)CO3)cn1.O=C(O)C(F)(F)F (stereo not given)
3. Cc1nc(C)c(CC(=O)NCc2ccc(F)cc2F)s1

Output:
[-3.216, -5.421, 12.14]

For each listed entry, give its Percent Effect.
1. CCOC1CCN(C(=O)c2csc(S(N)(=O)=O)c2)CC1
2. COc1ccccc1C1CCN(C(=O)c2ncccc2OC(C)C)C1 (stereo not given)
3. O=C(O)C(F)(F)F.O=C1COC2(COCCN(c3ccccn3)C2)CN1c1cccc(F)c1 (stereo not given)
4. CCNc1ncc(CN2C[C@@H](CN3CCC(CO)CC3)[C@@H](CO)C2)cn1
5. Cn1cc(N2CC3(COCCN(Cc4ccsc4)C3)OCC2=O)cn1.O=C(O)C(F)(F)F (stereo not given)

Output:
1. 18.04
2. 1.547
3. -5.368
4. 12.05
5. -6.124
